Assay: AUC (0 to infinity) in healthy white human with SLCO1B1 521TT/CYP2C8*3/*3 combined genotype at 2 mg, po
Format: ADME, organism-based
Design: dose 2 mg, time infinity, route oral
Details: plasma
recorded endpoint: AUC(0-inf) (ng·h/mL)
Answers are plain numbers, in ng·h/mL.

According to the records, this compound CCOc1cc(CC(=O)N[C@@H](CC(C)C)c2ccccc2N2CCCCC2)ccc1C(=O)O [REPAGLINIDE] displays AUC(0-inf) of 116

---

Tested on: Homo sapiens
Assay: Mean change in insulin concentration in healthy white human plasma with SLCO1B1 521TC/CYP2C8*1/*1 combined genotype at 2 mg, po
Format: ADME, organism-based
Settings: in vivo
recorded endpoint: Activity
Please format your answer as a value with the unit trailing.

According to the records, this compound CCOc1cc(CC(=O)N[C@@H](CC(C)C)c2ccccc2N2CCCCC2)ccc1C(=O)O [REPAGLINIDE] displays Activity of 5.7 mU/l
